# measurement-description: in vitro
# measurement-parameters: rat
metric-name: CC50 (µM)
Form entry: value (µM) — number only.

Which CC50 is listed for `COc1cc(C=CC(=O)NCCn2c(C)cc3ccccc32)cc(OC)c1OC` ?
172

* * *

# Test system: C6G cells
# measurement-description: CellTiter-Glo luminescent cell viability assay (cytotoxicity)
metric-name: Therapeutic index (in vitro), CC50/KB for EP2

If you can, please state the reported Therapeutic index (in vitro), CC50/KB for EP2 value of `Cc1nc2ccccc2n1CCNC(=O)C=Cc1ccc2c(c1)OCO2` .
219

* * *

# system-under-test: EP4 receptor (Homo sapiens, UniProt P35408)
# Sequence (P35408 whole entry): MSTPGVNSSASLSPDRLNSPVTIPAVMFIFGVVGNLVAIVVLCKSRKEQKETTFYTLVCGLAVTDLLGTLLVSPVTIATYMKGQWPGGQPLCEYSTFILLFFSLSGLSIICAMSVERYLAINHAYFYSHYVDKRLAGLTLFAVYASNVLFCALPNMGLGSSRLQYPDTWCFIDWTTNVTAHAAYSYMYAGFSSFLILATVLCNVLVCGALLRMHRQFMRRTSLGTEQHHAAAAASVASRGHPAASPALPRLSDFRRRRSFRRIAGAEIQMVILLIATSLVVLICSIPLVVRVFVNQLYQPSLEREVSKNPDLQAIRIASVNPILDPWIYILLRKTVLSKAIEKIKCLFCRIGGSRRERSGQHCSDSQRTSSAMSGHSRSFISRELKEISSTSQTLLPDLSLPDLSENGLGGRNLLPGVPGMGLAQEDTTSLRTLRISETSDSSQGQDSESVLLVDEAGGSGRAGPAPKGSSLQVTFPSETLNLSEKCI
# measurement-description: Schild regression analysis for EP4 receptor
# Format: cell-based
metric-name: Selective index, KB EP4/KB EP2
Answer using only a numeral; do not append any unit.

Solved entries (count: 6):
- smiles-code: "COc1cc(C=CC(=O)NCCn2cnc3ccccc32)cc(OC)c1OC"
  Selective index, KB EP4/KB EP2: 6
- smiles-code: "CCOc1ccc(C=CC(=O)NCCn2c(C)cc3ccccc32)cc1OC"
  Selective index, KB EP4/KB EP2: 268
- smiles-code: "COc1ccc(C=CC(=O)NCCn2c(C)cc3ccccc32)cc1"
  Selective index, KB EP4/KB EP2: 484
- smiles-code: "COc1cc(C=CC(=O)N(C)CCn2c(C)cc3ccccc32)cc(OC)c1OC"
  Selective index, KB EP4/KB EP2: 90
- smiles-code: "COc1ccc(C=CC(=O)NCCn2c(C)nc3ccccc32)cc1OC"
  Selective index, KB EP4/KB EP2: 14
- smiles-code: "Cc1cc2ccccc2n1CCNC(=O)C=Cc1ccc2c(c1)OCO2"
  Selective index, KB EP4/KB EP2: 629

Please turn your attention to the following entry.
Could you share which Selective index, KB EP4/KB EP2 value was measured for `COc1ccc(C=CC(=O)NCCn2c(C)cc3ccccc32)cc1OC` ?
435

The origin of these recorded values is patent US10040783B2.
